experiment: yeast display, Sf9 membrane polyspecificity reagent, FACS + sequencing; frameworks hold sequencing errors
observable: polyreactivity (PSR sort gate)

Worked examples follow.
[[record]]
entry_sequence = "QVQLVESGGGLVQAGGSLRLSCAASGYTFGYYTMGWYRQAPRKERELVASIDSGGGTNYADSVKGRFTISRDNAKNTVYLQMNSLKPEDTAVYYCAAESPLYWVDDFESGWRYYYWGQGTQVTVSS"
endpoint_result = "low polyreactivity"

[[record]]
entry_sequence = "QVQLVESGGGLVQAGGSLRLSCAASGITFQWYTMGWYRQAPGKERELVATISSGGSTNYADSVKGRFTISRDNAKNTVYLQMNSLKPEDTPVYYCAAYDYISSTYFLDEYWGQGTQVTVSS"
endpoint_result = "low polyreactivity"

[[record]]
entry_sequence = "QVQLVESGGGLVQAGGSLRLSCAASGSTFEGYAMGWYRQAPGKERELVAVISSGSITKYADSVKGRFTISRDNAKNTVYLQMNSLKPEDTAVYYCARKGGIIFASYLLGGYWGQGTQVTVSS"
endpoint_result = "low polyreactivity"

[[record]]
entry_sequence = "QVQLVESVVGLVQAGGSLRLSCAASGSIFIENTMGWYRQAPGKERELVAAISGSVGRTFYADSVKGRFTISRDNAKNTVYLQMNSLKPEDTAVYYCAAVRRTSPGWVYYWGQGTRVTVSS"
endpoint_result = "high polyreactivity"

[[record]]
entry_sequence = "QVQLVESGGGLVQAGGSLRLSCAASGRILPGNAMGWYRQAPGKERELVATITNGGRTYYADSVKGRFAISRDNAKNTVYLQMNSLKPVDTAVYYCAAVVVRFIYVYFEFEWGQGTQVTVSS"
endpoint_result = "low polyreactivity"

[[record]]
entry_sequence = "QVQLVESGGGLVQAGGSLRLSSAASGRTFYRYVMGWYRQAPGKERELVADITRSGGSTYYADSVKGRFTISRDNAKNTVYLQMNSLKPEDTAVYYCAAEFLSSVHVRGMDYWGQGTQVTVSS"
endpoint_result = "high polyreactivity"

[[record]]
entry_sequence = "QVQLVESGGGLVQAGGSLRLSCAASGFIYVYAMGWYRQPPRKERELVAAITATGDSTYYADSVKGRFTISRDNAKNTVYLQMNSLKPEDTAVYYCAAEWHYFVTMYYWGQGTQVTVSS"
endpoint_result = "low polyreactivity"

[[record]]
entry_sequence = "QVQLVESGGGLVQAGGSLRLSCAASGSIFGYYAMGWYRQAPGKERELVAVITRSGGSTYYADSVKGRFTISRDNAKNTVYLQMNSLKPEDTAVYYSNAKSDYGYKMYYWGQGTQVTVSS"
endpoint_result = "high polyreactivity"


Query: Form field: reported polyreactivity (PSR sort gate) of QVQLVESGGGLVQAGGSLRLSCAASGRTSLAYAMGWYRKATGKERELVAGITSGGNTNYADSVKGRFTISCDNAKNSVYLQMNRLKPEDTAVYYCNKKKRWQWYSESVLDELGFYSWGQGTQVTVSS
Result: low polyreactivity

Query: Thanks! And QVQHVESGGGLVQAGGSLRLSCAASGFIFRRYVMGWYRQAPGKERELVAAISYGGGSTYYADSVKGRFTISRDNAKNTVYLQMNCLKPEDTAVYYCNAVSYNLAAYDYWGQGTQVTVSS ?
Result: high polyreactivity

Query: Now the same for QVQLVESGGGLVQAGGSLRLSCAASGSISKGYAMGWYRQAPGKERELVARISGDGGSTYYADSVKGRFTISRDNAKNTVYLQMNSLKPEDTAVYYCNARAYYGIRYYSWGQGTQVTVSS
Result: high polyreactivity

---

experiment: yeast display, Sf9 membrane polyspecificity reagent, FACS + sequencing; frameworks hold sequencing errors
observable: polyreactivity (PSR sort gate)

Example entries begin here.
[[record]]
entry_sequence = "QVQLVETGGGIVQAGGSLSLSCAASGRIFSPYAMGWYRQAPGKERELVAAISYDDGITYYADSVKGRFTISRDNAKNTVYLQMISLKPEDTAVYYCAADSVTRPAGDYWGQGTQVTVSS"
endpoint_result = "low polyreactivity"

[[record]]
entry_sequence = "QVQLVESGGGLVQAGGSLRLSCAASGSIFRYNTMGWYRQAPGKERELVATITRRGGSTYYADSVKGRFTISRDNAKNTVYLQMNSLKPEDTAVYYCNADNFGGPYNYWGQGTQVTVSS"
endpoint_result = "low polyreactivity"

[[record]]
entry_sequence = "QVQLVESGGGLVQAGGSLRLSCAASGTIFAPNAMGWYRQAPGKERELVAAISRSGGRTYYADSVKGRFTISRDNAKNTVYLQMNSLKPEDTAVYYCAADYKHQRTYGSWGQGTQVTVSS"
endpoint_result = "high polyreactivity"

[[record]]
entry_sequence = "QVQLVESGGGLVQAGGSLRLSSAASGSILSYNAMGWYRQAPGKERELVASITGTGRSTRYADSVKGRFTISRDNAKNSVYLQMNSLKPEDTAVYYCATAAWWYYRIYHEFGYWGQGTQVTVSS"
endpoint_result = "high polyreactivity"


Then there is this sequence:
Query: What value of polyreactivity (PSR sort gate) has been recorded for this entry: QVQLVESGGGLVQAGGSLRLSCAASGSTFNRYAMGWYRQAPGKERELVASITTSDSTNYADSVNGRFTISRDNANNTVFLQINSLNPEDTAVYYCNAEVRGVWYTYDYWGQGTHVTVSS
Result: low polyreactivity

---

assay: yeast display, Sf9 membrane polyspecificity reagent, FACS + sequencing; frameworks hold sequencing errors
observable: polyreactivity (PSR sort gate)

[[record]]
entry_sequence = "QVQLVESGGGLVQAGGSLRLSCAASGSIFYYNAMGWYRQAPGKEREFVAAITISGGDTYYADSVKGRFTISRDNAKNTVYLQMNSLKPEDTAVYYCAAESYRGYDYWGQGTQVTVSS"
observable = "polyreactivity (PSR sort gate)"
endpoint_result = "high polyreactivity"

[[record]]
entry_sequence = "QVQLVESGGGLVQAGGSLRLSCAASGRIFGFYALGWYRQAPGKERELVAAITVSGSSTRYADSVKGRFTISRDNAKNTVYLQMNSLKPDDTAVYYCAASVGQFRYRYKWTFGNARMYYWGQGTQVTVSS"
observable = "polyreactivity (PSR sort gate)"
endpoint_result = "high polyreactivity"


---

test: yeast display, Sf9 membrane polyspecificity reagent, FACS + sequencing; frameworks hold sequencing errors
observable: polyreactivity (PSR sort gate)

[[record]]
entry_sequence = "QVQLVESGGGLVQAGGSLRLSCAASGLTFRRYAMGWYRQAPGKERELVAAINSRGGSTYYADSVKGRFTISRDNAKNTVYLQMNSLKPEDTAVYYCATRSFGRMDYWGQGTQVTVSS"
endpoint_result = "high polyreactivity"

[[record]]
entry_sequence = "QVQLVESGGGLVQAGGSLRLSCASSGRIFGPNAMGWYRQAPGKERELVAAITSGGRTKYADSVKGRFTISRDNAKNTVYLQMNSLKPEDTAVYYCATTAQYYWGQGTQVTVSS"
endpoint_result = "high polyreactivity"

[[record]]
entry_sequence = "QVQLVESGGGLVQAGGSLRLSCAASGSTFRDYAMGWYRQAPGKERELVAAISNSGGRTYYADSVKGRFTISRDNAKNTVYLQMNSLKPEDTAVYYCNAGRQTKWGQGTQVTVSS"
endpoint_result = "high polyreactivity"


---

assay: yeast display, Sf9 membrane polyspecificity reagent, FACS + sequencing; frameworks hold sequencing errors
observable: polyreactivity (PSR sort gate)

[[record]]
entry_sequence = "QVQLVDSGGGLVQAGGSLRLSCAASGSTFVKYTMGWYRQAPGKERELVAVISRSGGSTYYADSVKGRFTISRDNAKNTVYLQMNSLKPEDTAVYYCAAHFSRDFDYWGLGTQVTVSS"
endpoint_result = "high polyreactivity"

[[record]]
entry_sequence = "QVQLVESGGALVQAGGSLRLSCAASGSTFNRNAMGWYRPAPGKERELVAAISSRGGSTFYADSVMGRFTISRDNATNTVYLQMNSLKPEDTAVYYCNALIVSSWVRYDYWRQGTQVTVSS"
endpoint_result = "high polyreactivity"

[[record]]
entry_sequence = "QVQLVESGGGLVQPGGSLRLSCAASGSTLTLYDMGWYRQAPGKEWEFVAAIRSHGVSTYYADSEKGRFTISRDNAKNTVYLQMNSLQPEDTAVYYCSSVYIPGGRYTYFPYKRYDYWGQGTKVTVSS"
endpoint_result = "high polyreactivity"

[[record]]
entry_sequence = "QVQLVESGGGLVQAGGSLRLSCAASGIIFYTNAMGWYRQAPGKEREFVAAINTSGGITYYADSVKGRFTISRDNATNTVYLQMNSLKPEDTAVYYCAKDRRYRPPYGYEIEYAYWGQGTQVTVAS"
endpoint_result = "low polyreactivity"

[[record]]
entry_sequence = "QVQLVESGGGLVQAGGSLRLSCAASGSIFGSNAMGWYRQAPGKERELVAAISVRDGSTSYADSVKGRFTISRDNAKNTVYLQMNSLKPEDPAVYYCTAKSLAERYYRPEMDYWGQGTQVTVSS"
endpoint_result = "low polyreactivity"


Query: Entry under review: QVQLVESGGGLVQAGGSLRLSCAASGSISIKNAMGWYSQAPGKERELVATITYNGGSTYYADSVKGRFTISRDNAKNTVYLQMNSLKPEDTAVYYCSAGYLYYAEYDYWGQGTQVTVSS . Reported polyreactivity (PSR sort gate)?
Result: low polyreactivity

Query: // query: QVQLVESGGGLVQAGGSLRLSCAASGFTFTAYAMGWYRQAPGKERELVAAINWSGSRTYYADSVKGRFTISRDHAKNTVYLQMNSLKPEDTAVYYCNTATSKSSYRHYDYWGQGTQVTVSS
Result: high polyreactivity

Query: Repeat for the following sequence: QVQLVESGGGLVQAGGSLRLSCAASGIIFRSYAMGWYRQAPGKERELVAAISRRGGSTYYADSVKGRFTISRDNAKNTVYLQMNSLKPEDTAVYYCAATVLSSPEPYDYWGQGTQVTVSS
Result: high polyreactivity

Query: What about QVQLVESGRGLVQEGGSLRLSCAPSGLIFRYYAMGWYRQAPGKEREFVAAISGRGASTYYADSVKGRFTISRDNAKITGYLQMNSLTPEDTAVYYCATYFPSAVVAFHMDYWGQGTQVTVSS ?
Result: high polyreactivity

Query: Okay, and QVQLVESGGGLVQAGGSLRLSCAASGNIFVAYAMGWYRQAPGKERELVAAITSGGRTYADSVKGRFTISSDNAKNTVYLQMNSLKPEDTAVYYCNADPYYVYLGYYDRYYSGYGYWGLGTQVTVSS ?
Result: low polyreactivity

Query: And the next one, QVQLVESGGGLVQAGGSLRLSCAASGSIFLYNAMGWYRQAPGKERELVAGITFIGGSTYYADSVKGRFTISRDNAKNTVYLQMNSLKPEDTAVYYCNADVAPGIFYGYDSWGQGTQVTVSS ?
Result: low polyreactivity
